Just for reference, patent US7205299B2 is where these values come from.

# test_system: bovine tubulin (Bos taurus, UniProt P81947+Q6B856)
# Sequence (P81947 whole entry): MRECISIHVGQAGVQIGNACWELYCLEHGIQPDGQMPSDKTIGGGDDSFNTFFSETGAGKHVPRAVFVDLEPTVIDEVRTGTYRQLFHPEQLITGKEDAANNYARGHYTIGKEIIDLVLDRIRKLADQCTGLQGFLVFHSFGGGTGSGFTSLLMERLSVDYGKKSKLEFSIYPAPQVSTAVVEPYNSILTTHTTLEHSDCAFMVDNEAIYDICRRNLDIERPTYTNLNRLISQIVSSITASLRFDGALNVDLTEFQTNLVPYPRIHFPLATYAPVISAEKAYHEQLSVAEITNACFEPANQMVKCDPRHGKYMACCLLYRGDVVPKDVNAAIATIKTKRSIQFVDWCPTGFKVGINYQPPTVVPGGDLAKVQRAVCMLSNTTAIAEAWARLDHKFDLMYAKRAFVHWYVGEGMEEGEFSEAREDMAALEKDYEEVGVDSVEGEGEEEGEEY
# Sequence (Q6B856 whole entry): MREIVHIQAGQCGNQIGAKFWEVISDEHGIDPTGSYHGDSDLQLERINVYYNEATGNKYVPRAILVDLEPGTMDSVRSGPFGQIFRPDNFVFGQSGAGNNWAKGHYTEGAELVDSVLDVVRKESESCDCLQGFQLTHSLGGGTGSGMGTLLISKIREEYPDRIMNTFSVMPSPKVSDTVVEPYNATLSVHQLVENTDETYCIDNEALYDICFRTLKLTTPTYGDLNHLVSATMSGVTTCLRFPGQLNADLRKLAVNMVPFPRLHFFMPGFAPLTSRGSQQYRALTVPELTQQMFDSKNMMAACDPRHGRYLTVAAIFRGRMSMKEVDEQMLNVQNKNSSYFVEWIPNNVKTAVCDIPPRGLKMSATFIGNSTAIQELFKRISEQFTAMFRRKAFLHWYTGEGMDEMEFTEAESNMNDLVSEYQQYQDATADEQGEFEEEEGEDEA
# assay_summary: Inhibition of tubulin polymerization
# Assay type: biochemical
# condition_label: summary of Table 3
property_measured: inhibitory effect on tubulin polymerization (in words)

Query: Query (compound): `Cc1ccc2cccc(NC(=O)C(=O)c3cn(Cc4ccc(F)cc4)c4ccccc34)c2n1` ; field requested: inhibitory effect on tubulin polymerization (in words)
Result: do not exert any effect

Query: Then what about the compound `O=C(Nc1cccc2cccnc12)C(=O)c1cn(Cc2ccc(Cl)cc2)c2ccccc12` ?
Result: do not exert any effect

---

# System: resistant line L1210/mdr (L1210VCR)
# assay_summary: XTT proliferation assay, L1210VCR
# Format: cell-based, murine
# condition_label: Mus musculus
property_measured: EC50

Use these answered entries as a reference point.
Query: Suppose we examine the compound COc1cccc2c1C(=O)c1c(O)c3c(c(O)c1C2=O)C[C@@](O)(C(=O)CO)C[C@@H]3O[C@H]1C[C@H](N)[C@H](O)[C@H](C)O1 [Doxorubicin, doxorubicin] ; what EC50 value has been reported?
Result: > 3.16 µg/mL

Query: Next up: O=C(Nc1ccc2ncccc2c1)C(=S)c1cn(Cc2ccc(Cl)cc2)c2ccccc12 [Compound 11]
Result: 0.067 µg/mL

Query: Can you check CC[C@]1(O)C[C@H]2CN(CCc3c([nH]c4ccccc34)[C@@](C(=O)OC)(c3cc4c(cc3OC)N(C=O)[C@H]3[C@@](O)(C(=O)OC)[C@H](OC(C)=O)[C@]5(CC)C=CCN6CC[C@]43[C@@H]65)C2)C1 [Vincristine, vincristine] next?
Result: > 3.16 µg/mL

Query: And then O=C1c2c(O)ccc(O)c2C(=O)c2c(NCCNCCO)ccc(NCCNCCO)c21 [Mitoxantrone, mitoxantrone] , what is it?
Result: 2.1 µg/mL

Next:
Query: Fill blank: measured EC50 of the compound COc1cc([C@@H]2c3cc4c(cc3[C@@H](O[C@@H]3O[C@@H]5CO[C@@H](C)O[C@H]5[C@H](O)[C@H]3O)[C@H]3COC(=O)[C@H]23)OCO4)cc(OC)c1O [Etoposide, etoposide] is ____.
Result: > 3.16 µg/mL

Query: What do you have for CC(=O)O[C@H]1C(=O)[C@@]2(C)[C@H]([C@H](OC(=O)c3ccccc3)[C@]3(O)C[C@H](OC(=O)[C@H](O)[C@@H](NC(=O)c4ccccc4)c4ccccc4)C(C)=C1C3(C)C)[C@]1(OC(C)=O)CO[C@@H]1C[C@@H]2O [Paclitaxel, paclitaxel] ?
Result: > 3.16 µg/mL

---

# assay_summary: Saturation solubility in water
# Type: physicochemical
# condition_label: thermodynamic from solid, maximum of 1% DMSO, HPLC-UV
property_measured: solubility (µg/mL)
Value expressed in µg/mL; do not type the unit.

Solved entries (count: 3):
Query: Entry `O=C(Nc1cnc2nccnc2c1)C(=O)c1cn(Cc2ccc(Cl)cc2)c2ccccc12` has what solubility?
Result: 25

Query: // query: `CC(=O)N(C(=O)C(=O)c1cn(Cc2ccc(Cl)cc2)c2ccccc12)c1ccc2ncccc2c1`
Result: 28.5

Query: Param item: `O=C(Nc1ccc2ncccc2c1)C(=O)c1cn(Cc2ccc(Cl)cc2)c2ccccc12`
Result: 0.038

Further cases:
Query: // lookup solubility for `O=C(Nc1ccncc1)C(=O)c1cn(Cc2ccc(Cl)cc2)c2ccccc12`
Result: 0.35
